# Tested on: SR leukemia
# experiment-notes: NCI-60 one-dose screen, 48 h (100 = growth as untreated, 0 = no growth, -100 = all killed)
# run-conditions: 10 µM unless noted
About 83,000 compounds went through this panel and 20% of them were active in at least one assay; those are over-represented in the sample as a whole.
Please respond with reported growth for every item in the list.
Give the number; % is assumed, so skip it.

q: Report growth for OCCNC1CCCCC1 please.
a: 94.2

q: Report growth for C[C@]12CC[C@H]3[C@@H](CC=C4c5nc(N)sc5CC[C@@]43C)[C@@H]1CC[C@@H]2O please.
a: 91.6

q: Report growth for COc1ccc(CN)cc1OC please.
a: 104

q: Report growth for CC[C@H](C)[C@H](NC(=O)[C@H]1CCCCN1C)C(=O)N(C)[C@H](C[C@@H](OC(C)=O)c1cccc(C(=O)N[C@@H](Cc2ccccc2)C[C@H](C)C(=O)OC)n1)C(C)C please.
a: 12.2

q: Report growth for CC(=O)c1cccc(S(=O)(=O)F)c1 please.
a: 76.1

q: Report growth for COc1ccc2c(c1)c(-c1nc(-c3cn(C)c4ncccc34)cs1)cn2CCCCN1CCOCC1 please.
a: -5.63

q: Report growth for C[C@]12CCC3[C@@H](C[C@@H]4SC(Nc5ccccc5)=N[C@@]45CC(=O)CC[C@]35C)[C@@H]1CCC2=O (some centres not stated) please.
a: -5.37

q: Report growth for S=P(SP(=S)(c1ccccc1)c1ccccc1)(c1ccccc1)c1ccccc1 please.
a: 93.7

q: Report growth for CO/N=C1\CC[C@]2(C)[C@H]3CC[C@]4(C)C(=O)CC[C@H]4[C@@H]3C[C@@H]3SC(N)=N[C@@]32C1 please.
a: 71.8

q: Report growth for Nc1ccc2c(c1)Cc1cc(N)ccc1-2 please.
a: 95

q: Report growth for O=C1C=C(N2CC2)c2ccccc2C1=O please.
a: 0.0144

q: Report growth for C[C@@]12CCCc3coc(c31)C(=O)c1cc3c(cc12)C(=O)C1=C(NCCS1(=O)=O)C3=O please.
a: -13.3

q: Report growth for CCCCOC(N)=O please.
a: 96.1

q: Report growth for CC[C@H](C)[C@H]1O[C@]2(C=C[C@@H]1C)C[C@@H]1C[C@@H](C/C=C(\C)[C@@H](O[C@H]3C[C@H](OC)[C@@H](O[C@H]4C[C@H](OC)[C@@H](NC)[C@H](C)O4)[C@H](C)O3)[C@@H](C)/C=C/C=C3\CO[C@@H]4[C@H](O)C(C)=C[C@@H](C(=O)O1)[C@]34O)O2 please.
a: -32.4

q: Report growth for COc1c(O)cc2c(c1OC)-c1ccc(SC)c(=O)cc1C(NC(C)=O)CC2 (configuration not stated) please.
a: 5.8

q: Report growth for O=C1c2ccccc2C(=O)N1N1CC1c1ccccc1 (configuration not stated) please.
a: 77.9

q: Report growth for N#Cc1ccc(Cl)cc1 please.
a: 87

q: Report growth for CN1C2CCC1[C@@H](COC(=O)c1ccccc1)[C@@H](O)C2 (some centres not stated) please.
a: 105

q: Report growth for C[C@]12CCc3sc(Nc4ccc(OC(F)(F)F)cc4)nc3C1=CC[C@@H]1[C@@H]2CC[C@]2(C)C(=O)CC[C@@H]12 please.
a: 16.9

q: Report growth for NC(=O)Oc1cc(OC(N)=O)cc(N(CCCl)CCCl)c1 please.
a: -17.1

q: Report growth for CCOP(=O)(NC)OCC please.
a: 71.3

q: Report growth for Cc1cc[c-]cc1.Fc1c[c-]c(-c2ccccn2)c(F)c1.[Pt+2].c1ccc([PH+](c2ccccc2)c2ccccn2)cc1 please.
a: 42.5

q: Report growth for CC[C@H](C)[C@H](NC(=O)CN(C)C)C(=O)N(C)[C@H](C[C@@H](OC(C)=O)c1nc(C(=O)NC23CC(C(=O)OC)(C2)C3)cs1)C(C)C please.
a: 17.8

q: Report growth for C#Cc1cccc(Nc2nc(Cl)nc3cc(NC(=O)CF)ccc23)c1 please.
a: 22.1

q: Report growth for C=CC[PH+](c1ccccc1)c1ccccc1.C=CC[PH+](c1ccccc1)c1ccccc1.[Pt+2].[S-]c1ncccn1.[S-]c1ncccn1 please.
a: 13.5

q: Report growth for CN1CCc2cc3c(cc2C1O)OCO3 (configuration not stated) please.
a: 101

q: Report growth for COc1ccc(C(C#N)C(C)=O)cc1 (configuration not stated) please.
a: 98.8

q: Report growth for O=[P+](O)c1cccnc1 please.
a: 96.4

q: Report growth for C[C@]12CCc3sc(Nc4ccc(F)cc4)nc3C1=CC[C@@H]1[C@@H]2CC[C@]2(C)C(=O)CC[C@@H]12 please.
a: 19.5

q: Report growth for CC1=C([Te]c2ccccc2)C(=O)c2ccccc2C1=O please.
a: 21.4

q: Report growth for CC[C@H](C)[C@H](NC(=O)[C@H]1CCCCN1C)C(=O)N(C)[C@H](C(=O)NC12CC(C(=O)N[C@@H](Cc3ccccc3)C[C@H](C)C(=O)OC)(C1)C2)C(C)C please.
a: 114

q: Report growth for O=C/C=C/c1ccco1 please.
a: 99.4

q: Report growth for CC/C(=C(\c1ccc(OCCN2CCOCC2)cc1)c1ccc(OC(=O)Cc2ccccc2)cc1)c1ccc(Cl)cc1 please.
a: 95.6

q: Report growth for O=CC1(c2ccccc2)CCN(Cc2ccccc2)CC1 please.
a: 97.8

q: Report growth for O=C(Cc1ccccc1)NC(O)C(Cl)(Cl)Cl (configuration not stated) please.
a: 101

q: Report growth for Cc1cc[n+](CCc2ccccc2)cc1 please.
a: 101

q: Report growth for COc1ccc(N(CC(=O)NCCC[Te]c2ccccc2)C(=O)c2ccccc2)cc1 please.
a: 10.3

The measurements presented in this section are drawn from PubChem BioAssay (NCI).
